Ref: patent US8501794B2

# TARGET_UNDER_TEST: UniProt:Q9QZN9
# Sequence (Q9QZN9 1-360): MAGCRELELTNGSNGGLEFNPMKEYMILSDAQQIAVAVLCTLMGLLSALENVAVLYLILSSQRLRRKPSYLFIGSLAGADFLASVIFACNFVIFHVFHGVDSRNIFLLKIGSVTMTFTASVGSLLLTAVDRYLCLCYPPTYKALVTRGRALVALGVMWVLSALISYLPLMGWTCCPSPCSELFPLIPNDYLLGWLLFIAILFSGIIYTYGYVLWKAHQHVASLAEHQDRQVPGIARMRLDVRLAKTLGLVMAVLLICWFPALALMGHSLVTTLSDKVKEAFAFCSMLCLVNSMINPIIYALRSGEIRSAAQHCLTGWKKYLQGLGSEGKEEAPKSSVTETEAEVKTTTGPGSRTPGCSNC
# TEST_DETAILS: rat CB2 cyclase functional assay (HitHunter cAMP, HEK cells)
# SETUP_CONDITIONS: forskolin 18 μM
ASSAY_ENDPOINT: pEC50
Answers are plain numbers, as −log10 of the molar value.

Recorded pEC50, per entry:
                                   compound  recorded_number
0  COc1ccc(Cl)cc1C(=O)/N=c1\sn(C(C)(C)C)cc1CC1CCC1             8.77
1  CCCCc1cn(C(C)(C)C)s/c1=N\C(=O)[C@@]1(C)CC[C@@H](C(=O)NC)C1(C)C             8.96
2  COc1ccc(Cl)cc1C(=O)/N=c1\sn(C(C)(C)C)cc1CCC(C)=O             9.06
3  CCCCc1cn(C(C)(C)C)s/c1=N\C(=O)c1cc(C)ccc1OC             9.64
4  CCCCc1cn(C(C)(C)C)s/c1=N\C(=O)[C@@]1(C)CC[C@@H](C(=O)OC)C1(C)C             9.42
5  CCCCc1cn(C(C)(C)C)s/c1=N\C(=O)C1(C)CCC(C(=O)NC)C1(C)C (centres unmarked)             9.00
6  COc1ccc(Cl)cc1C(=O)/N=c1\sn(C(C)(C)C)cc1CCN=[N+]=[N-]             9.15
7  CCCCc1cn(C(C)(C)C)s/c1=N\C(=O)C1(c2ccccc2)CCCCC1             9.60
8  COc1ccc(Cl)cc1C(=O)/N=c1\sn(C(C)(C)C)cc1CC1OCCO1             9.62
9  COc1ccc(C(F)(F)F)cc1C(=O)/N=c1\sn(C(C)(C)C)cc1CCCC#N             8.80

Working through the 5 compounds below one at a time, give pEC50 for each.
1. COc1ccc(C(F)(F)F)cc1C(=O)/N=c1\sn(C(C)(C)C)cc1CC(C)C
2. CCCCc1cn(C(C)(C)C)s/c1=N\C(=O)c1cc(Cl)ccc1OCC#N
3. CCCCc1cn(C(C)(C)C)s/c1=N\C(=O)[C@@H]1CC[C@](C)(C(=O)O)C1(C)C
4. COc1ccc(Cl)cc1C(=O)/N=c1\sn(C(C)(C)C)cc1CCCC(C)=O
5. COc1ccc(C#N)cc1C(=O)/N=c1\sn(C(C)(C)C)cc1CC(C)C

[10.00, 10.21, 7.93, 9.54, 10.11]

Working through the 7 compounds below one at a time, give pEC50 for each.
1. COc1ccc(Cl)cc1C(=O)/N=c1\sn(C(C)(C)C)cc1OCCCCF
2. CCCCc1cn(C(C)(C)C)s/c1=N\C(=O)c1cc(S(C)(=O)=O)ccc1OC
3. COc1ccc(Cl)cc1C(=O)/N=c1\sn(C(C)(C)C)cc1CCCC(C)(F)F
4. COc1ccc(C(F)(F)F)cc1C(=O)/N=c1\sn(C(C)(C)C)cc1Cc1ccco1
5. COc1ccc(Cl)cc1C(=O)/N=c1\sn(C(C)(C)C)cc1CCC(C)O (centres unmarked)
6. COc1ccc(C#N)cc1C(=O)/N=c1\sn(C(C)(C)C)cc1Cc1ccco1
7. COc1ccc(Cl)cc1C(=O)/N=c1\sn(C(C)(C)C)cc1CCCC#N

1: 10.34; 2: 9.25; 3: 9.92; 4: 9.44; 5: 8.57; 6: 9.52; 7: 9.70

Record request: pEC50 value, item CCCCc1cn(C(C)(C)C)s/c1=N\C(=O)[C@@]1(C)CC[C@@H](C(=O)O)C1(C)C 8.47
